# Assay target: High affinity choline transporter 1 (Homo sapiens)
# Sequence (Q9GZV3 whole entry): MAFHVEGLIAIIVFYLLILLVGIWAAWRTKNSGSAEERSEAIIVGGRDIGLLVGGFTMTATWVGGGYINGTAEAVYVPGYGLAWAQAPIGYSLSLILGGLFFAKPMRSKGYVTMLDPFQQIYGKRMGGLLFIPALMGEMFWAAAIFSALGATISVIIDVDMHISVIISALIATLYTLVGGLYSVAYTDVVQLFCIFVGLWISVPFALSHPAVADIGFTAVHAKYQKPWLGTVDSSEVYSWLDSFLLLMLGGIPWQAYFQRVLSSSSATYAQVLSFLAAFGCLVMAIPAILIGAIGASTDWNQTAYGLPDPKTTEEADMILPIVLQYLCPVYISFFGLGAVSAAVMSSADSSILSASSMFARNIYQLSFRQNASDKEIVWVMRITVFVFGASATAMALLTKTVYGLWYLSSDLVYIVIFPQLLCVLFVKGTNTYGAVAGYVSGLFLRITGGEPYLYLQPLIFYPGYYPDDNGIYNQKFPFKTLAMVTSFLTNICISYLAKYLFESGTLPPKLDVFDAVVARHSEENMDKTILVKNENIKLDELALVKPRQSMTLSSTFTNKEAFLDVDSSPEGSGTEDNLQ
# Measurement description: human choline transporter blockers, potency – cell-based, 5-point CRC, membrane potential dye, dose response (AID 504840)
# Assay type: functional
The source made the active and inactive calls.
Parameter: IC50

- Cc1sc2ncnc(NCc3ccco3)c2c1C: 13.2 µM (active)
- O=C(CSc1nc2ccccc2c(=O)n1C1CC1)NCc1ccccc1: 4.79 µM (active)
- CC(C)C(=O)Nc1cccc(NC(=O)c2ccc(Cl)cc2Cl)c1: 7.24 µM (active)
- CCN1CCN(C(=O)c2ccc3nc(-c4ccccc4)c(-c4ccccc4)nc3c2)CC1: 15.6 µM (active)
- Cc1csc(NC(=O)CCN2C(=O)c3ccccc3S2(=O)=O)n1: 13.8 µM (active)
- NC(=O)CCCn1c(C(=O)c2cc(Cl)c(N)c(Cl)c2)c2ccc([N+](=O)[O-])cc2[n+]1[O-]: 12.3 µM (active)

Continue with the compound presented below.
Entry `Cn1c(CN2CCCCC2)nc2cc(NC(=O)c3ccccc3Cl)ccc21` : reported IC50 = ?
13.5 µM (active)

* * *

# IC50 per record follows
# Assay target: Orexin receptor type 2 (Homo sapiens, UniProt O43614)
# Sequence (O43614 whole entry): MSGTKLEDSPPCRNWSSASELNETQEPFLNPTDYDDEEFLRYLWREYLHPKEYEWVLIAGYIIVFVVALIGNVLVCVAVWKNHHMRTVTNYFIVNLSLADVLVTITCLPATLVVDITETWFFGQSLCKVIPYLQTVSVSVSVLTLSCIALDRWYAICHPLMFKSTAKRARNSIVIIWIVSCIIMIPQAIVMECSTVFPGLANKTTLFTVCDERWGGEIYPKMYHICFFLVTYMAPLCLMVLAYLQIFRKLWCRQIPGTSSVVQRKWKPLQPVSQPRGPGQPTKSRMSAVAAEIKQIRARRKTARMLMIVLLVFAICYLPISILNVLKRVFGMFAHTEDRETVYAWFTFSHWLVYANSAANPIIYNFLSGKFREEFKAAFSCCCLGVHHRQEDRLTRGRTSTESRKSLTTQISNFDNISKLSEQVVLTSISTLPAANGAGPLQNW
# Measurement description: Counterscreen assay for antagonists of the orexin 1 receptor (OX1R; HCRTR1): Fluorescence-based cell-based dose response assay for antagonists of the orexin 2 receptor (OX2R; HCRTR2), run by assay provider.
# Assay type: functional
Active and inactive are the calls of the source.

Some molecules with known IC50 results, for comparison:
- Cc1cc(O)cc2c(=O)c3ccccc3sc12: > 88.8 µM (inactive)
- CN(Cc1ccccc1)C(=O)c1[nH]cnc1C(=O)N[C@@H](Cc1ccccc1)C(=O)OC(C)(C)C: > 88.8 µM (inactive)
- O=c1cc(CN2CC(O)Cc3ccc4ccccc4c32)nc2sccn12 (stereo not given): > 88.8 µM (inactive)
- CCCCNC(=O)CCC(=O)NNc1nc2ccccc2c2nc(-c3ccccc3)nn12: > 88.8 µM (inactive)

Entry `Cc1csc(-c2coc3cc(O)cc(C)c3c2=O)n1` : reported IC50 = ?
> 88.8 µM (inactive)

* * *

# IC50 per record follows
# Assay target: Induced myeloid leukemia cell differentiation protein Mcl-1 (Homo sapiens, UniProt Q07820)
# Sequence (Q07820 whole entry): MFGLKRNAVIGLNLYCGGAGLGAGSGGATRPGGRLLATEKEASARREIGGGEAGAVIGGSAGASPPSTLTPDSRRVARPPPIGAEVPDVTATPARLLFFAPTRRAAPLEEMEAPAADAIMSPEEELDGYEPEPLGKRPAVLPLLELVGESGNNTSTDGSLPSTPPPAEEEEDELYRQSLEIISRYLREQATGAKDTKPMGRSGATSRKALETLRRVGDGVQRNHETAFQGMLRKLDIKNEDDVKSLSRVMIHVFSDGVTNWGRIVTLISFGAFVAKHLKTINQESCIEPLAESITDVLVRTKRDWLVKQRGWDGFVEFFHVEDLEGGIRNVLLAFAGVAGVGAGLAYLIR
# Type: functional
Active and inactive are the calls of the source.

- C=CCn1c(C)cc(C(=O)Cn2ncc(Cl)c(Cl)c2=O)c1C: 5.14 µM (active)

Entry `COC(=O)[C@@]1(Cc2ccccc2)[C@H]2c3cc(C(=O)N4CCCC4)n(CCSCCO)c3C[C@H]2CN1C(=O)c1ccccc1` : reported IC50 = ?
1.87 µM (not active)

Entry O=C(O)C1Nc2c(O)cc(Cl)c([N+](=O)[O-])c2C2C=CCC12 (stereo not given) : reported IC50 = ?
> 54 µM (active)

Entry Oc1cc2c(cc1C(c1ccc(Cl)c(Cl)c1)N1CCCC1)OCO2 (stereo not given) : reported IC50 = ?
4.76 µM (not active)

Entry `O=C(CCO)c1ccc(O)cc1` : reported IC50 = ?
5.16 µM (active)

* * *

# EC50 per record follows
# Assay target: Protein RecA (Mycobacterium tuberculosis)
# Measurement description: Fluorescence Cell-Free Homogeneous Dose Retest to Identify Inhibitors of RecA-Intein Splicing Activity. [Related pubchem assays (depositor defined):AID2097, AID2223, AID489010, AID492950]
# Type: functional
The source made the active and inactive calls.

- COCc1n[nH]c2c1C(c1ccccc1F)C(C#N)=C(N)O2 (centres undefined): 6.49 µM (active)
- CCc1n[nH]c2c1C(c1cccc(OC(=O)N3CCOCC3)c1)C(C#N)=C(N)O2 (centres undefined): 9.88 µM (active)
- O=c1cc(C23CC4CC(CC(C4)C2)C3)[nH][nH]1: 2.52 µM (active)

Entry CCc1nc(N2CCN(C(=O)CCl)CC2)c2c3c(sc2n1)CC(C)CC3 (centres undefined) : reported EC50 = ?
0.729 µM (active)

* * *

# EC50 per record follows
# Assay target: Luciferin 4-monooxygenase (Photinus pyralis, UniProt P08659)
# Sequence (P08659 whole entry): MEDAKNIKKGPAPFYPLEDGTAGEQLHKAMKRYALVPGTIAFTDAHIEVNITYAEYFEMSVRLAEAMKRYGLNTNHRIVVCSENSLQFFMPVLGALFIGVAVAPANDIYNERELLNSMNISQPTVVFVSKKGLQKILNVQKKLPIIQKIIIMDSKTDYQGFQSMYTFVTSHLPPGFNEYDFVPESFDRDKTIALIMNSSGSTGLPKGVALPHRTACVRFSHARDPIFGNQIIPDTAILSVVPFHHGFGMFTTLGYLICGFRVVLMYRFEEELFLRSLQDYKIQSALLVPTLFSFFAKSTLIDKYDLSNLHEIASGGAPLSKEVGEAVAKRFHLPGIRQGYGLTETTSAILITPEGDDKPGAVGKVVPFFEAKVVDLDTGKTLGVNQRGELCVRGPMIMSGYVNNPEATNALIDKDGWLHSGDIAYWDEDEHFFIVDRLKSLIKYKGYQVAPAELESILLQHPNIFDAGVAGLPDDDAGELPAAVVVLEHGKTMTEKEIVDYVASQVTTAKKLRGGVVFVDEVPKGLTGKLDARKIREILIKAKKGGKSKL
# Measurement description: inhibition of purified Photinus pyralis luciferase – biochemical, luminescence, dose response (AID 1891)
Activity calls are given as the source filed them.

Some molecules with known EC50 results, for comparison:
- O=C(/C=C/c1ccc(O)cc1)c1ccccc1 [4-HYDROXYCHALCONE]: < 0.088 µM (active)
- O=C(Nc1ccc2c(c1)OCO2)Nc1ccccc1F: 1.77 µM (active)
- CCN1CCN(Cc2nc3c(c(=O)[nH]c(=O)n3C)n2Cc2ccccc2Cl)CC1: > 112 µM (not active)
- COc1ccccc1NC(=O)c1cc2n(n1)C(C(F)(F)F)CC(c1ccc3c(c1)OCO3)N2 (stereo not drawn): > 112 µM (not active)
- COc1ccc(NC(=O)c2cnn(-c3ccccc3)c2C)cc1: 16.6 µM (active)
- Cc1nonc1C(=O)N/N=C/c1ccc(O)c(O)c1: 4.26 µM (active)
- CCCCOC(=O)c1ccc(OC(=O)N2CCOCC2)cc1: > 112 µM (not active)

Entry `COc1cc2c(cc1OC)-c1cc(Nc3cccc(C)c3)nc(=O)n1CC2` : reported EC50 = ?
> 112 µM (not active)

* * *

# Assay target: Protein skinhead-1 (Caenorhabditis elegans, UniProt P34707)
# Sequence (P34707 whole entry): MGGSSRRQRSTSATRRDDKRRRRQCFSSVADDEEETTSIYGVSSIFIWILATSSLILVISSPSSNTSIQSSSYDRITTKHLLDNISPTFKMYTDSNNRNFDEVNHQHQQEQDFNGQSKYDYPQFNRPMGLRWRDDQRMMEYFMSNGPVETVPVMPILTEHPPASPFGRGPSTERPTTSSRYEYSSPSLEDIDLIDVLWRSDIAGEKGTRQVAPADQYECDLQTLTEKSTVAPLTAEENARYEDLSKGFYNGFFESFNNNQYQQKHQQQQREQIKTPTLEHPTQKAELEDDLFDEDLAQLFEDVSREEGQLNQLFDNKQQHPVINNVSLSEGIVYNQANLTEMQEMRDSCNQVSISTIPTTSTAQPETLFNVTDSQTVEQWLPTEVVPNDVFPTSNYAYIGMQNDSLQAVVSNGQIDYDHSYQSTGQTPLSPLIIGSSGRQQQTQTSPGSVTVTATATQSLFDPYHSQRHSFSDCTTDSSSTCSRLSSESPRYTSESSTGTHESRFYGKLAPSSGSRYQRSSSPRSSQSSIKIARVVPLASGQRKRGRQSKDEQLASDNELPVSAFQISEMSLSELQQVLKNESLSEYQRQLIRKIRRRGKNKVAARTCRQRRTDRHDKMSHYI
# Assay type: functional
The source made the active and inactive calls.
Can you answer with just one of these options? active, inactive

Worked set:
* Clc1ccsc1-c1ccc2ccccc2n1 | active
* Cc1ccc(NC(=O)COc2ccc(Br)cc2CO)cc1S(=O)(=O)N1CCOCC1 | inactive
* CC(C)C(=O)NCCc1nc(-c2ccccc2Cl)no1 | inactive

Moving on to the next molecule.
Recorded test outcome, item O=C(Nc1ccc(-c2cn3ccsc3n2)cc1)C1COc2ccccc2O1 (centres undefined)
inactive

* * *

# AC50 per record follows
# Measurement description: HIV-1 AD8 envelope cell-cell fusion blockers – cherry-pick, dose response (AID 652062);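 further: luciferase signal from cell-cell fusion driven by HIV-1 clade B AD8 Env; potency is for inhibitors of fusion seen as a drop in luminescence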
# Format: functional, cell-based
Activity calls are given as the source filed them.

* CC(C)(C)N1C(=O)[C@H]2[C@@H](c3ccc(Br)cc3)N3C(=O)N(c4ccccc4)C(=O)[C@@]3(C)[C@H]2C1=O | 1.83 µM (active)
* Cc1cc(Cl)ccc1OCCCC(=O)Nc1cc(S(=O)(=O)N2CCOCC2)ccc1N1CCOCC1 | 7.34 µM (active)
* Cc1cccc2cc3c(N)c(C#N)sc3nc12 | 5.1 µM (active)
* CCCNC(=O)C[C@H]1CC[C@@H]2[C@@H](COc3ccc(NC(=O)c4cccc(C(F)(F)F)c4)cc3C(=O)N2C)O1 | 12.7 µM (active)

Continue with the compound presented below.
Entry `C[C@H](CO)N1C[C@H](C)[C@H](CN(C)S(=O)(=O)c2ccccc2)Oc2ccc(NC(=O)NC3CCCCC3)cc2CC1=O` : reported AC50 = ?
4.13 µM (active)

* * *

# EC50 per record follows
# Assay target: UniProt:P35372
# Sequence (P35372 whole entry): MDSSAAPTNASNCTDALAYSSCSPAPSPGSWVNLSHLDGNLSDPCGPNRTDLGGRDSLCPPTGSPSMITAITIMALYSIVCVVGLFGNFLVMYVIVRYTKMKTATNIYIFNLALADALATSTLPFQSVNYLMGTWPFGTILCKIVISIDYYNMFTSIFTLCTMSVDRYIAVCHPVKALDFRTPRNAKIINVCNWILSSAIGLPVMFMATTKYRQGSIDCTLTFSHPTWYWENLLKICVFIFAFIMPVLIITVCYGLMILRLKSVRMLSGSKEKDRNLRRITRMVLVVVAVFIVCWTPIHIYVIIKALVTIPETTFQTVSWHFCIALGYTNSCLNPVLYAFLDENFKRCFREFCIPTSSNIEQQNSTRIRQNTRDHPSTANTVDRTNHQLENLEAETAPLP
# Assay type: functional, cell-based
Active and inactive are the calls of the source.

Entry O=C1C2CCCN2C(=O)N1CCCCN1CCN(c2ccccc2)CC1 (stereo not given) : reported EC50 = ?
92.4 µM (inactive)

Entry `COc1ccc(CN2CCN(C(=O)c3ccco3)CC2)cc1` : reported EC50 = ?
92.5 µM (inactive)

Entry Cc1cccc(OCC(O)CN2CCN(c3ccccn3)CC2)c1C (stereo not given) : reported EC50 = ?
92.5 µM (inactive)

Entry N#Cc1c(Br)n(C2OC(CO)C(O)C2O)c2ncnc(N)c12 (stereo not given) : reported EC50 = ?
92.4 µM (inactive)

Entry `O=C(c1ccco1)N1CCN(Cc2ccccc2F)CC1` : reported EC50 = ?
92.5 µM (inactive)
